- procedure details: Toxicity liver stage against HepG2, at 10uM
- Assay type: cell-based
- Parameters: test concentration 10 uM, cell line HepG2-A16-CD81EGFP
- experimental parameters: human, HepG2-A16-CD81EGFP cells; read-out: INHIBITION
Reported cytotoxicity at 10 µM by item:
Just the number in %, nothing appended.

Answered examples (5):
> print(dat)
                                   molecule                 metric  experimental.value
1            CN1CCNC(=O)C12CCN(Cc1ccco1)CC2  cytotoxicity at 10 µM               -81.3
2  CCN(C)CC(=O)N1CCC(c2cc(N3CCOCC3)nc(C)n2)CC1  cytotoxicity at 10 µM                 6.9
3  CC(C(N)=O)S(=O)(=O)Cc1cc(Cl)c2c(c1)OCO2 (stereo not given)  cytotoxicity at 10 µM               -14.2
4               CCCn1[nH]c(CNc2ccccc2)nc1=O  cytotoxicity at 10 µM                9.98
5  CC(C)CNC(=O)c1nc2c(s1)CCN(C(=O)c1ccc(Cl)cc1)CC2  cytotoxicity at 10 µM                 7.4

Q: Which cytotoxicity at 10 µM value is on record for "CCS(=O)(=O)N1C[C@H]2CC[C@@]3(N=C(C)N(CC(C)C)C3=O)[C@H]2C1" ?
A: -85

Q: What about this molecule? "O=C(NC[C@H]1OC[C@@H](NC2CCC(F)(F)CC2)[C@@H]1O)c1cccs1"
A: -7.34

Q: What about this molecule? CN1CC(c2ccccc2)CC12CCN(C(=O)c1ccc(Cl)cc1)CC2 (stereo not given)
A: -2.72

Q: What about this molecule? "CCc1n[nH]c(C(=O)NCCn2nccc2C)c1C"
A: -7.28

Q: What about this molecule? "CCNC(=O)[C@@H]1C[C@H](N)CN1c1cc(CC)nc(N(C)C)n1"
A: -3.08

* * *

- procedure details: Toxicity liver stage against HepG2, at 10uM
- Format: cell-based
- Design: test concentration 10 uM, cell line HepG2-A16-CD81EGFP
- experimental parameters: human, HepG2-A16-CD81EGFP cells; read-out: INHIBITION
metric: cytotoxicity at 10 µM (%)
Just the number in %, nothing appended.

Answered examples (5):
> print(dat)
                                   compound  experimental.value
1  CCn1c(C)nnc1CN(C)C1CCN(Cc2cnc(C)cn2)C1 (stereo not given)                14.6
2  Cc1cc(C)c(CNC(=O)NCC2COc3ccccc3C2)c(=O)[nH]1 (stereo not given)                8.51
3  COC(=O)c1ccc(Cn2cccc(C(F)(F)F)c2=O)c(OC)c1                8.55
4  CCCc1noc(C(C)S(=O)(=O)Cc2nc(C3CC3)no2)n1 (stereo not given)               -9.02
5             Cc1ccc(C2(CN3CCCC3)CCNCC2)nc1               -12.8

Q: Which cytotoxicity at 10 µM value is on record for O=C1CC2(CCN(Cc3cccnc3)C2)CN1c1cccc(F)c1 (stereo not given) ?
A: -147

Q: What about this compound? "CN(C)CCN1CCO[C@H]2CN(C(=O)N(C)C)C[C@H]21"
A: 0.657

Q: What about this compound? "O=C(NCc1ccccn1)[C@@H]1CCO[C@@H]2CCN(Cc3ccoc3)C[C@H]21"
A: 5.33

Q: What about this compound? CC(c1c(F)cccc1F)N1CCN(Cc2nccn2C)CC1 (stereo not given)
A: -13.6
